Values from patent US20230364070A1

compounds and their reported IC50
# Target Under Test: pEGFR in Ba/F3 cells expressing EGFR exon 20 NPG Ins D770_N771 (Homo sapiens, UniProt P00533, INS770NPG)
# Sequence (P00533 with tags, fused parts or gaps INS770NPG): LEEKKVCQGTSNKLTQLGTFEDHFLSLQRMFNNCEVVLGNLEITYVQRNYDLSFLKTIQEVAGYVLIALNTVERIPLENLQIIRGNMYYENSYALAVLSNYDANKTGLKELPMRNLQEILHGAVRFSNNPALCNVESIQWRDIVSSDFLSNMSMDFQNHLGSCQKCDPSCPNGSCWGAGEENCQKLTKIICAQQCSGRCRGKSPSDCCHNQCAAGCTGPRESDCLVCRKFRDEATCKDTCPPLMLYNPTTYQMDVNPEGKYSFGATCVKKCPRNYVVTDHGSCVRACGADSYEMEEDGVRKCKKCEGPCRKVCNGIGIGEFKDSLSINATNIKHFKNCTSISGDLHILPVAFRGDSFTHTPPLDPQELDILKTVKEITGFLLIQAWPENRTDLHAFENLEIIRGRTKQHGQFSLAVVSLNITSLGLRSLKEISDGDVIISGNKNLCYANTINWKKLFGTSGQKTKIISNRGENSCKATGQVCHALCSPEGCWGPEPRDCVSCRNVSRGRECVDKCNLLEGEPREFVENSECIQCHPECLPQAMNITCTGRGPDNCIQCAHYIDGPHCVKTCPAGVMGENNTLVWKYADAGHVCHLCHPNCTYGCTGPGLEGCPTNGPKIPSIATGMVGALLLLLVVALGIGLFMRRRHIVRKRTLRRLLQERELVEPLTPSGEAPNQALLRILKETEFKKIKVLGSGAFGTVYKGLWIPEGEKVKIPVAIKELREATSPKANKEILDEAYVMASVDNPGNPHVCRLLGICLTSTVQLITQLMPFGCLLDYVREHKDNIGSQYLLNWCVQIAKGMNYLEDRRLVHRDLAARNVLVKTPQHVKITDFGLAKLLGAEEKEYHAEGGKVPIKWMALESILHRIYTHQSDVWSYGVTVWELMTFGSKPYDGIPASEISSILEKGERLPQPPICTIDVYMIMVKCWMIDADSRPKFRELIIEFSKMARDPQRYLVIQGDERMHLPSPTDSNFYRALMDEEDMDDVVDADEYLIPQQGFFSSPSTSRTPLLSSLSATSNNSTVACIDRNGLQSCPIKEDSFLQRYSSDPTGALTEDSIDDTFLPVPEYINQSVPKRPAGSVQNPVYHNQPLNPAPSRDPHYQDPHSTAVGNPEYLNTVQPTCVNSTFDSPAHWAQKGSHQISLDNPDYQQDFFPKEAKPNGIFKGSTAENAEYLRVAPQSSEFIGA
# Assay Text: Inhibitor activity on EGFR phosphorylation (pEGFR AlphaLISA, 2 h), Ba/F3 EGFR exon 20 NPG insertion
# Assay Setup: Ba/F3 EGFR exon 20 NPG Ins D770_N771

Answered cases to consult:
{"Compound": "COc1c(Cl)cccc1Nc1c(-c2ccncc2OCc2ccco2)[nH]c2c1C(=O)NCC2", "IC50": "> 1000 nM"}
{"Compound": "COc1cccnc1COc1cnccc1-c1[nH]c2c(c1Nc1cccc(F)c1OC)C(=O)NCC2", "IC50": "< 100 nM"}
{"Compound": "COc1c(F)cccc1Nc1c(-c2ccncc2OCC2CCc3ncnn32)[nH]c2c1C(=O)NCC2 (stereo not shown)", "IC50": "< 100 nM"}
{"Compound": "C=CC(=O)N1CCC[C@@H]1C#Cc1cnccc1-c1[nH]c2c(c1Nc1cccc(F)c1OC)C(=O)NCC2 [Compound 147b]", "IC50": "< 100 nM"}
{"Compound": "COc1c(Cl)cccc1Nc1c(-c2ccncc2C#C[C@H]2COCCN2C)[nH]c2c1C(=O)NCC2", "IC50": "< 100 nM"}
{"Compound": "CCC(=O)N1CCC[C@H]1COc1cnccc1-c1[nH]c2c(c1Nc1cccc(Cl)c1OC)C(=O)NCC2", "IC50": "100 to 1000 nM"}

response.value for C=CC(=O)N1CCCC[C@@H]1COc1cnccc1-c1[nH]c2c(c1Nc1cccc(F)c1C)C(=O)NCC2 (field: IC50) = < 100 nM

response.value for COc1c(F)cccc1Nc1c(-c2ccncc2OCc2cccn3ccnc23)[nH]c2c1C(=O)NCC2 (field: IC50) = < 100 nM

response.value for COc1c(F)cccc1Nc1c(-c2ccncc2OCc2ccncn2)[nH]c2c1C(=O)NCC2 (field: IC50) = < 100 nM

response.value for C=C(F)C(=O)N1CC[C@@H]1COc1cnccc1-c1[nH]c2c(c1Nc1cccc(Cl)c1OC)C(=O)NCC2 (field: IC50) = < 100 nM

response.value for COc1c(F)cccc1Nc1c(-c2ccncc2OCc2nccn2C)[nH]c2c1C(=O)NCC2 (field: IC50) = < 100 nM

response.value for C=CC(=O)N1CC(F)(F)C[C@@H]1C#Cc1cnccc1-c1[nH]c2c(c1Nc1cccc(Cl)c1OC)C(=O)NCC2 (field: IC50) = < 100 nM

response.value for COc1c(F)cccc1Nc1c(-c2ccncc2OCCc2ccco2)[nH]c2c1C(=O)NCC2 (field: IC50) = < 100 nM

response.value for C=CC(=O)N1CCC[C@]1(C)C#Cc1cnccc1-c1[nH]c2c(c1Nc1cccc(F)c1OC)C(=O)NCC2 (field: IC50) = < 100 nM

response.value for COc1c(F)cccc1Nc1c(-c2ccncc2OCC2CCc3nccn32)[nH]c2c1C(=O)NCC2 (stereo not shown) (field: IC50) = > 1000 nM

response.value for C=CC(=O)N1CCC[C@H]1COc1cnccc1-c1[nH]c2c(c1Nc1cccc(F)c1C)C(=O)NCC2 (field: IC50) = < 100 nM

response.value for C=CC(=O)N1CCC[C@H]1COc1cnccc1-c1[nH]c2c(c1Nc1cccc(F)c1CC)C(=O)NCC2 (field: IC50) = < 100 nM

response.value for CC#CC(=O)N1CC[C@@H]1COc1cnccc1-c1[nH]c2c(c1Nc1cccc(Cl)c1OC)C(=O)NCC2 (field: IC50) = < 100 nM

response.value for COc1c(F)cccc1Nc1c(-c2ccncc2Oc2cnn(C)c2)[nH]c2c1C(=O)NCC2 (field: IC50) = > 1000 nM

response.value for C=CC(=O)N1CCOC[C@H]1C#Cc1cnccc1-c1[nH]c2c(c1Nc1cccc(Cl)c1OC)C(=O)NCC2 (field: IC50) = < 100 nM

response.value for COc1c(F)cccc1Nc1c(-c2ccncc2OCc2ccnn2C)[nH]c2c1C(=O)NCC2 (field: IC50) = < 100 nM

response.value for C=CC(=O)N1CCOC[C@@H]1C#Cc1cnccc1-c1[nH]c2c(c1Nc1cccc(Cl)c1OC)C(=O)NCC2 (field: IC50) = < 100 nM
